target: Human GLP-1 receptor (human, UniProt P43220 24-463); assay: cell-based or functional assay
Sequence (P43220 24-463): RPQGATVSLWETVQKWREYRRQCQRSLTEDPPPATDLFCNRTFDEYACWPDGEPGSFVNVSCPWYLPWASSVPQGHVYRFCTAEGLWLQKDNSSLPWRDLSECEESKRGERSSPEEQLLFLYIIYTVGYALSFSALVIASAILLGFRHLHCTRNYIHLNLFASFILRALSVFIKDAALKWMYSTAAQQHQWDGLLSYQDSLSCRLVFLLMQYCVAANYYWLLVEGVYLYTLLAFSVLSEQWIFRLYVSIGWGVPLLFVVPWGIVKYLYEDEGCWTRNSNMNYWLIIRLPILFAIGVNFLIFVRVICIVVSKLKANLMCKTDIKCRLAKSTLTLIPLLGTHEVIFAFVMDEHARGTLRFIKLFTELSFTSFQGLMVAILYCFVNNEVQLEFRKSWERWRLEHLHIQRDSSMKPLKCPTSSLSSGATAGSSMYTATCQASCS
Where no end group is shown, it is not given here. [ ]: non-standard residue; d: D form. Ac3c = NC1(C(=O)O)CC1
Parameter: cAMP release, % activity with respect to control; test compound 100 nM (%)

# Binder, Result
data = [
    ("H[Ac3c]QGTFTSD[Bip(OMe)][Bip(Pyr)] [Seq. ID. No. 18: H-(ACP)-QGTFTSD-Bip(OMe)-Bip(Pyr)]", 99),
    ("HAQGTFTSD[Bip(OMe)][Bip(2Me)] (not fully specified (C-terminus); printed as HAQGTFTSD-Bip(OMe)-Bip(2Me)) [Seq. ID. No. 9: HAQGTFTSD-Bip(OMe)-Bip(2Me)]", 85),
    ("HXQGTXTSDXX (Aib at 2; α-Me-2F-Phe at 6; Bip(OMe) at 10; Bip(Pyr) at 11) [Seq. ID. No. 30: H-Aib-QGT-(α-Me-2F-Phe)-TSD-Bip(OMe)-Bip(Pyr)]", 99),
    ("HSQGTFTSD[Bip(OMe)][Bip(2CF3)] (not fully specified (C-terminus); printed as HSQGTFTSD-Bip(OMe)-Bip(2CF3)) [Seq. ID. No. 8: HSQGTFTSD-Bip(OMe)-Bip(2CF3)]", 87),
    ("HXQGTXTSDXX (Aib at 2; α-Me-2F-Phe at 6; Bip(OMe) at 10; Bip(2F) at 11) [Seq. ID. No. 31: H-Aib-QGT-(α-Me-2F-Phe)-TSD-Bip(OMe)-Bip(2F)]", 99),
]
